Assayed target: Recombinant Human Poly(ADP-Ribose) Polymerase (PARP), PARP-1 (Homo sapiens (Human), UniProt P09874)
Sequence (P09874 whole entry): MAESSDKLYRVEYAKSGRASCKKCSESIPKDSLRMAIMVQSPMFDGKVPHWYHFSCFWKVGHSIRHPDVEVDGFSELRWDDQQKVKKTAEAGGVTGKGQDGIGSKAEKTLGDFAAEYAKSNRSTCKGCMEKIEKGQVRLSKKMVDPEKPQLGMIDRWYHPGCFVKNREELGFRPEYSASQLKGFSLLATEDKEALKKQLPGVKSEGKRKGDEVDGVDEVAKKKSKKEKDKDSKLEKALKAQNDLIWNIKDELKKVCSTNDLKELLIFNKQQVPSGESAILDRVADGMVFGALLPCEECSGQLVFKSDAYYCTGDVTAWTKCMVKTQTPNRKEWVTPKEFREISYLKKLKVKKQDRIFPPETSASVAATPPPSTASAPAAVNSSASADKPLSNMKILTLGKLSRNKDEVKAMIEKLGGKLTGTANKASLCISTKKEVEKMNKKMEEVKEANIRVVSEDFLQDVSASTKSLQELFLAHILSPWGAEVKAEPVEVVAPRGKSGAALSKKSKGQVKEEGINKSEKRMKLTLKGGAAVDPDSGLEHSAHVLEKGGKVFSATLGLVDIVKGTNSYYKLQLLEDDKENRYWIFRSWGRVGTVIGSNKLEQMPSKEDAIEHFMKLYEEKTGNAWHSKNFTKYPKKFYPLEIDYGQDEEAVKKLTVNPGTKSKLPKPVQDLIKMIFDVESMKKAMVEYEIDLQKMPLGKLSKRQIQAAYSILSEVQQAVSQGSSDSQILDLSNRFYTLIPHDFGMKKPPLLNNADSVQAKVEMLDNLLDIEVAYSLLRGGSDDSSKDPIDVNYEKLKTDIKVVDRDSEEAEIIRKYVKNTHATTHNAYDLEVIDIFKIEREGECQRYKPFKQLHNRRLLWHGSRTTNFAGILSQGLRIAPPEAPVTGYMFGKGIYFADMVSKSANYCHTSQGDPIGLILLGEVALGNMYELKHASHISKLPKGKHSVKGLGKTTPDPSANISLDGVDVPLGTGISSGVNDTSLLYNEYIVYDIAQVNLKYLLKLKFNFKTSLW
Run conditions: read-out: PARP-1 (Ki); Table 1; text calls the values EC50s
pKi: −log10 of the molar value.
Value kind: pKi

[
  {
    "Sample smiles": "CCCc1ccccc1NC(=O)c1cccc(Cc2n[nH]c(=O)c3c2CCCC3)c1",
    "Value kind": "pKi",
    "Measured number": 6.20
  },
  {
    "Sample smiles": "Cc1cccc(CCNC(=O)c2cccc(Cc3n[nH]c(=O)c4c3CCCC4)c2)c1",
    "Value kind": "pKi",
    "Measured number": 7.38
  },
  {
    "Sample smiles": "CN(C(=O)c1cc(Cc2n[nH]c(=O)c3c2NCCC3)ccc1F)C1CCN(C(=O)OC(C)(C)C)CC1",
    "Value kind": "pKi",
    "Measured number": 7.96
  }
]

[P] O=C(NC1CCN(C(=O)c2ccccn2)CC1)c1cc(Cc2n[nH]c(=O)c3c2NCCC3)ccc1F
[Q] O=C(c1ccc(Cl)nc1)N1CCN(C(=O)c2cc(Cc3n[nH]c(=O)c4c3NCCC4)ccc2F)CC1
[R] O=C(c1cccc(Cc2n[nH]c(=O)c3c2CCCC3)c1)N1CCN(CCO)CC1
[S] CCOc1ccc(C(=O)Nc2cccc(Cc3n[nH]c(=O)c4c3CCCC4)c2)cc1OCC
[T] Nc1cccc(Cc2n[nH]c(=O)c3c2CCCC3)c1
IN: Please give the order of these compounds when sorted by pKi, largest value leading. Labels, ranked as asked.
OUT: Q, P, R, S, T
